measured-parameter: melting point

O=C(NOCCO)c1ccc(-c2ccc3nnn(Cc4ccc5ncsc5c4)c3n2)cc1F    164 to 166 °C

List the reported melting point of each compound below.
1. Cc1ccc2cc(Cn3nnc4ccc(-c5cc(F)c(C(=O)NOCCO)c(F)c5)nc43)ccc2n1
2. O=C(NOCCO)c1ccc(-c2ccc3nnn(Cc4ccc5ncsc5c4)c3n2)cc1Cl
3. C[C@@H](O)CNC(=O)c1ccc(-c2ccc3ncn(Cc4ccc5ncccc5c4)c3n2)cc1F
4. Cc1ccc2cc(Cn3nnc4ccc(-c5ccc(C(=O)NOCCO)c(Cl)c5)nc43)ccc2n1
5. CC(C)C(=O)OCCONC(=O)c1ccc(-c2ccc3nnn(Cc4ccc5ncccc5c4)c3n2)cc1Cl
6. CNC(=O)c1ccc(-c2ccc3ncn(Cc4ccc5ncccc5c4)c3n2)cc1C

208 to 210 °C
194 to 196 °C
151 to 158 °C
219 to 222 °C
115 to 118 °C
118 to 120 °C

melting point lookup needed for CC(=O)OCCONC(=O)c1ccc(-c2ccc3nnn(Cc4ccc5ncccc5c4)c3n2)cc1Cl , thanks.
168 to 170 °C

====

molecular target: human recombinant Met kinase (Homo sapiens); construct: purchased Cell Signalling Technology, Beverly, Mass; assay: Colorimetric determination of c-Met kinase activity (HTScan Met Kinase Assay Kit); assay type: biochemical; details: Table 4A; 100 nM (cells without *); read-out: c-Met Enzyme % inhibition @ 100 nM
Sequence (P08581 25-1390): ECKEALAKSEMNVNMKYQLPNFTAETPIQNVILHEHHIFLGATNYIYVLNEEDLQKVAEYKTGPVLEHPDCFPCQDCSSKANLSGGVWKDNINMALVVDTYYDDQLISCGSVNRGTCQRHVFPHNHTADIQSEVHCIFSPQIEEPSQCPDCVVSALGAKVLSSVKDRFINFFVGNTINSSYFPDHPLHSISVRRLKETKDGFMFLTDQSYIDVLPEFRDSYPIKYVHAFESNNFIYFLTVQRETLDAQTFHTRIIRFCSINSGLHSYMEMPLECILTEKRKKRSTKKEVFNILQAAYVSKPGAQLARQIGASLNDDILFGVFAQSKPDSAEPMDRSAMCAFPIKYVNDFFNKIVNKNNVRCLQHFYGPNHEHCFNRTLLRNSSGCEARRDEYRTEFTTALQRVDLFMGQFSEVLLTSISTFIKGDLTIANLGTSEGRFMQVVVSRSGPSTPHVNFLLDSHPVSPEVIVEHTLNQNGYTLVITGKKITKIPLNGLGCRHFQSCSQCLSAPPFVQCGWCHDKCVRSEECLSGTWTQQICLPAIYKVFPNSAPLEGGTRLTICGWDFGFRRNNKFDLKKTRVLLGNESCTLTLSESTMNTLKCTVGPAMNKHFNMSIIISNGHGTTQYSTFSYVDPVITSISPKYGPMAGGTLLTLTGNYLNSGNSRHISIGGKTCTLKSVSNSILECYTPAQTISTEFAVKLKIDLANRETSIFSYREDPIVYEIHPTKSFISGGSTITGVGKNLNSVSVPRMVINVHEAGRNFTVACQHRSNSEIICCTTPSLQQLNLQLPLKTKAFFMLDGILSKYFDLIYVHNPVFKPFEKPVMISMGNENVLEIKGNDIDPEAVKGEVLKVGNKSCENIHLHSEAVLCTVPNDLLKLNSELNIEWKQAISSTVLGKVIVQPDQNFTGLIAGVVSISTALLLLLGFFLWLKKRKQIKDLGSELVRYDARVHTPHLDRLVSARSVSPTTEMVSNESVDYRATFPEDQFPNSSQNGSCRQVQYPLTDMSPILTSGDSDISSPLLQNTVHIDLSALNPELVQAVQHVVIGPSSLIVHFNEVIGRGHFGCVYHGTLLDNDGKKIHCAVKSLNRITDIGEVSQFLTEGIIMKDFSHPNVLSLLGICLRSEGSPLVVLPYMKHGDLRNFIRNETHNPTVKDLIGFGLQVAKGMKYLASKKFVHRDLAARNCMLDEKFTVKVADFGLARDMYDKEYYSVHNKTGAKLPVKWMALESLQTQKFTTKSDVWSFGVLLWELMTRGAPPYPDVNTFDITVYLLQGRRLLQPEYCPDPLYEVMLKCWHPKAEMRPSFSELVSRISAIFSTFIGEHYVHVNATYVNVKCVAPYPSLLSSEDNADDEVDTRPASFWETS
measured-parameter: inhibition at 0.1 µM

Consider the reported inhibition at 0.1 µM for these compounds:
Cc1cc(-c2ccc3nnn(Cc4ccc5[nH]c(=O)ccc5c4)c3n2)ccc1C(=O)NOCCO [Example 25d]    < 25%
O=C(NOCCO)c1ccc(-c2ccc3nnn(Cc4cc5cccnc5cc4F)c3n2)cc1C(F)(F)F    75 to 100%
CC(C)C(=O)OCCONC(=O)c1ccc(-c2ccc3nnn(Cc4ccc5ncccc5c4)c3n2)cc1Cl    75 to 100%
C/C(=N\OCCNC(N)=O)c1ccc2nnn(Cc3ccc4ncccc4c3)c2n1    50 to 75%

Attention now shifts to the item below.
Please provide the recorded inhibition at 0.1 µM for CC(=O)OCCONC(=O)c1ccc(-c2ccc3nnn(Cc4ccc5ncccc5c4)c3n2)cc1C , tested on human recombinant Met kinase (Homo sapiens).
75 to 100%
